system: WM2664 cells (WM266-4, human skin metastasis); assay: MTT cytotoxicity assay, WM2664 cells; assay type: cell-based; conditions: WM2664, 72 h (24 + 48 h recovery)
Provide the reported IC50 of each item.
Answers are plain numbers, in µM.

- Molecule: "O=[N+]([O-])[O-].O=[N+]([O-])[O-].[Cu+2].c1cnc2c(c1)ccc1cccnc12 [Cu(phen)(NO3)2, reference compound]"
  Units: "µM"
  IC50: 1110

Now for the molecule whose IC50 we want.
Asked: Note down IC50 recorded for N.N.[Cl][Pt][Cl] [cisplatin (CDDP), cisplatin, reference compound]
Given back: 8.3

====

Provide the reported pIC50 of each item.
System: MCF7 cell line (human breast adenocarcinoma)
Assay: MTT cytotoxicity assay, MCF7 cells
Type: cell-based
Conditions: MCF7, 72 h (24 + 48 h recovery)
Description: The cytotoxicity of the four novel heteronuclear Ir^III–Cu^II complexes was assessed against four selected cancer cell lines: A549, MCF7, DU145, WM2664, and one normal HEK293T cell line in vitro (Table 3). […] IC50 values have been determined from the plots of cell viability at various concentrations of each compound by matching appropriate dose–response curves and are presented in Table 3. […]
One number for each entry, as −log10 of the molar value.

- Compound: "O=[N+]([O-])[O-].O=[N+]([O-])[O-].[Cu+2].c1cnc2c(c1)ccc1cccnc12 [Cu(phen)(NO3)2, reference compound]"
  Observed Value: 3.37

Now for the compound whose pIC50 we want.
Asked: Note down pIC50 recorded for N.N.[Cl][Pt][Cl] [cisplatin (CDDP), cisplatin, reference compound]
Given back: 4.75

Provenance of the data: paper PMC9727733
